Molecular target: human IL-21R expressed on cells (human, UniProt Q9HBE5 20-538)
Sequence (Q9HBE5 20-538 limits assumed): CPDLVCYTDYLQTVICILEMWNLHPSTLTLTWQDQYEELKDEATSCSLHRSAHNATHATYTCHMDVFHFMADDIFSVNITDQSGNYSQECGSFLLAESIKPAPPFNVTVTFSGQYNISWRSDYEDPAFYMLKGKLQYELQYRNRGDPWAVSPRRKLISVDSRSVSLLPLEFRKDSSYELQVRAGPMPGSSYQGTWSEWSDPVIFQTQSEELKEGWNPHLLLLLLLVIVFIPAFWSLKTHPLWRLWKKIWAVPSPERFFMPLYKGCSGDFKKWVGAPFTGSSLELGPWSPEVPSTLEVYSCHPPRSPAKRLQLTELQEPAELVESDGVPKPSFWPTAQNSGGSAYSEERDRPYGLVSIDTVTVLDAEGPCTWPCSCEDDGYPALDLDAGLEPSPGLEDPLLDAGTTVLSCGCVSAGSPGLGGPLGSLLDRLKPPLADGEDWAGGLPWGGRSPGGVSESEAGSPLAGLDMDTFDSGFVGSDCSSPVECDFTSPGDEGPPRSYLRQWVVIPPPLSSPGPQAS
Test: cell-based or functional assay
Quick reference for IC50, Human IL-21R-TF1 Neutralization Assay among some binders
Number in nM, nothing else.

A selection of reference data follows.
scFv L11 (scFv) scFv: QVQLQESGPGLVKTSETLSLTCAVSGYSISSGYYWGWIRQPPGKGLEWIGSISHTGNTYYNPPLKSRVTISVDTSKNQFSLKLSSVTAADTAVYYCARGGGISRPEYWGKGTLVTVSSGGGGSGGGGSGGGGSALSSELTQDPPVSVALGQTVTLTCQGDSLRTYYASWYQQKSGQAPILLLYGKHKRPSGIPDRFSGSTSGDTASLTITGAQAEDEADYYCSSRSRHGNPHVLFGGGTQLTVL :: 38.3
scFv L20 (scFv) scFv: QVQLQESGPGLVKTSETLSLTCAVSGYSISSGYYWGWIRQPPGKGLEWIGSISHTGNTYYNPPLKSRVTISVDTSKNQFSLKLSSVTAADTAVYYCARGGGISRPEYWGKGTLVTVSSGGGGSGGGGSGGGGSALSSELTQDPPVSVALGQTVTLTCQGDSLRTYYASWYQQKSGQAPILLLYGKHKRPSGIPDRFSGSTSGDTASLTITGAQAEDEADYYCVSRSAKGNPHVLFGGGTQLTVL :: 57.5
scFv H5 (scFv) scFv: QVQLQESGPGLVKTSETLSLTCAVSGYSISSGYYWGWIRQPPGKGLEWIGSISHTGNTYYNPPLKSRVTISVDTSKNQFSLKLSSVTAADTAVYYCARFLGFGRPEYWGKGTLVTVSSGGGGSGGGGSGGGGSALSSELTQDPPVSVALGQTVTLTCQGDSLRTYYASWYQQKSGQAPILLLYGKHKRPSGIPDRFSGSTSGDTASLTITGAQAEDEADYYCNSRDSSGNPHVLFGGGTQLTVL :: 178
scFv L23 (scFv) scFv: QVQLQESGPGLVKTSETLSLTCAVSGYSISSGYYWGWIRQPPGKGLEWIGSISHTGNTYYNPPLKSRVTISVDTSKNQFSLKLSSVTAADTAVYYCARGGGISRPEYWGKGTLVTVSSGGGGSGGGGSGGGGSALSSELTQDPPVSVALGQTVTLTCQGDSLRTYYASWYQQKSGQAPILLLYGKHKRPSGIPDRFSGSTSGDTASLTITGAQAEDEADYYCSARSVRGNPHVLFGGGTQLTVL :: 15.3

Here is another binder to look at.
Problem: Any idea what its IC50, Human IL-21R-TF1 Neutralization Assay is? The binder is scFv L15 (scFv) scFv: QVQLQESGPGLVKTSETLSLTCAVSGYSISSGYYWGWIRQPPGKGLEWIGSISHTGNTYYNPPLKSRVTISVDTSKNQFSLKLSSVTAADTAVYYCARGGGISRPEYWGKGTLVTVSSGGGGSGGGGSGGGGSALSSELTQDPPVSVALGQTVTLTCQGDSLRTYYASWYQQKSGQAPILLLYGKHKRPSGIPDRFSGSTSGDTASLTITGAQAEDEADYYCSTRAIHGNPHVLFGGGTQLTVL
Result: 30.3
